Where do these numbers come from? They come from patent US9376420B2.

- experimental_target: human LXRβ (Homo sapiens)
- Sequence (P55055 222-460 limits assumed): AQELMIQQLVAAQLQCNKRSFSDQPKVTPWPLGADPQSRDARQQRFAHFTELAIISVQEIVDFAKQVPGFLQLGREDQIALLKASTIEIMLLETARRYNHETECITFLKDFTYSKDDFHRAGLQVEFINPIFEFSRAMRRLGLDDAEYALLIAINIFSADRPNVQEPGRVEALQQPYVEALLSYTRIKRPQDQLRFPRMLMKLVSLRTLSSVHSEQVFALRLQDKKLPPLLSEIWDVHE
- assay_explanation: Assay for Transcriptional Activity of LXRβ (GAL4-hLXRβ LBD luciferase reporter, transient transfection)
- condition_info: increase of transcriptional activity of LXRβ; HEK293 cells transfected with pFA-hLXRβ/GAL4 and pUAS; 24 hours; average of three independent tests
- Source text: […] The following tables 1 and 2 show the EC50 values of the test compounds measured as in the above. […]
pEC50: −log10 of the molar value.
Below: a set of entries, each annotated with reported pEC50.
test_readout: pEC50

# compound, numeric_readout
data = [
    ("CCCS(=O)(=O)N1CC=C(c2ccc(C3CC(C(O)(C(F)(F)F)C(F)(F)F)=NN3c3ccccc3Cl)cc2)CC1 (stereo not shown)", 6.20),
    ("CC(O)c1ccc(-c2cccc(C3CC(C(F)(F)C(F)(F)F)=NN3c3ccccc3Cl)c2)cc1 (stereo not shown)", 6.00),
    ("CS(=O)(=O)c1ccc(-c2ccc(C3CC(C(O)(C(F)(F)F)C(F)(F)F)=NN3c3ccc(F)cc3F)cc2)cc1C#N (stereo not shown)", 6.50),
    ("CS(=O)(=O)c1ccc(-c2cccc(C3CC(C(F)(F)C(F)(F)F)=NN3c3ccc(F)cc3F)c2)cc1 (stereo not shown)", 5.61),
    ("OC(C1=NN(c2ccccc2Cl)C(c2ccc(-c3cnc(Cl)nc3)cc2)C1)(C(F)(F)F)C(F)(F)F (stereo not shown)", 5.75),
    ("O=S(=O)(N1CCCC1)N1CCN(c2ccc(C3CC(C(O)(C(F)(F)F)C(F)(F)F)=NN3c3ccccc3Cl)cc2)CC1 (stereo not shown)", 5.74),
    ("CS(=O)(=O)c1cncc(-c2cccc(N3N=C(C(F)(F)C(F)(F)F)CC3c3ccc(F)cc3F)c2)c1 (stereo not shown)", 5.21),
    ("Cn1c(-c2ccc(C3CC(C(O)(C(F)(F)F)C(F)(F)F)=NN3c3ccc(F)cc3F)cc2)cc2ccccc21 (stereo not shown)", 6.17),
    ("Cc1ccccc1-c1ccc(C2CC(C(O)(C(F)(F)F)C(F)(F)F)=NN2c2ccccc2Cl)cc1 (stereo not shown)", 6.11),
    ("OC(C1=NN(c2ccccc2Cl)C(c2ccc(-c3ccc(F)c(Cl)c3)cc2)C1)(C(F)(F)F)C(F)(F)F (stereo not shown)", 6.14),
    ("Fc1ccc(N2N=C(C(F)(F)C(F)(F)F)CC2c2cccc(-c3ccccc3)c2)c(F)c1 (stereo not shown)", 4.72),
    ("O=S(=O)(C1CC1)N1CCN(c2cccc(C3CC(C(F)(F)C(F)(F)F)=NN3c3ccc(F)cc3F)c2)CC1 (stereo not shown)", 5.51),
    ("CNCCCS(=O)(=O)c1cccc(-c2ccc(C3CC(C(O)(C(F)(F)F)C(F)(F)F)=NN3c3ccccc3Cl)cc2)c1 (stereo not shown)", 6.53),
    ("O=S(=O)(C1CCCC1)N1CC=C(c2ccc(C3CC(C(O)(C(F)(F)F)C(F)(F)F)=NN3c3ccccc3Cl)cc2)CC1 (stereo not shown)", 5.90),
    ("CN(C)c1ccc(-c2ccc(C3CC(C(O)(C(F)(F)F)C(F)(F)F)=NN3c3ccccc3Cl)cc2)cc1 (stereo not shown)", 5.15),
    ("CN(C)S(=O)(=O)N1CC=C(c2cccc(C3CC(C(O)(C(F)(F)F)C(F)(F)F)=NN3c3ccccc3Cl)c2)CC1 (stereo not shown)", 6.80),
    ("COc1ccc(-c2ccc(C3CC(C(O)(C(F)(F)F)C(F)(F)F)=NN3c3ccccc3Cl)cc2)c(Cl)c1 (stereo not shown)", 5.97),
    ("O=S(=O)(C1CCCCC1)N1CC=C(c2ccc(C3CC(C(O)(C(F)(F)F)C(F)(F)F)=NN3c3ccccc3Cl)cc2)CC1 (stereo not shown)", 5.26),
    ("CS(=O)(=O)c1ccc(-c2cccc(C3CC(C(F)(F)C(F)(F)F)=NN3Cc3ccccc3Cl)c2)cc1 (stereo not shown)", 5.19),
    ("CS(=O)(=O)N1CCCN(c2ccc(C3CC(C(O)(C(F)(F)F)C(F)(F)F)=NN3c3ccccc3Cl)cc2)CC1 (stereo not shown)", 6.11),
    ("CC(C)(C)OC(=O)N1CC=C(c2ccc(C3CC(C(O)(C(F)(F)F)C(F)(F)F)=NN3c3ccccc3Cl)s2)CC1 (stereo not shown)", 5.95),
    ("CSc1cccc(-c2cccc(N3N=C(C(O)(C(F)(F)F)C(F)(F)F)CC3c3ccccc3Cl)c2)c1 (stereo not shown)", 5.65),
    ("CSc1ccc(-c2ccnc(C3CC(C(F)(F)C(F)(F)F)=NN3c3ccc(F)cc3F)c2)cc1 (stereo not shown)", 5.60),
    ("O=C(CCC1CCCC1)N1CC=C(c2cccc(C3CC(C(O)(C(F)(F)F)C(F)(F)F)=NN3c3ccccc3Cl)c2)CC1 (stereo not shown)", 7.68),
    ("O=C(c1ccc(Cl)cc1)N1CC=C(c2cccc(C3CC(C(O)(C(F)(F)F)C(F)(F)F)=NN3c3ccccc3Cl)c2)CC1 (stereo not shown)", 6.92),
    ("O=S(=O)(C1CC1)N1CC=C(c2ccc(C3CC(C(O)(C(F)(F)F)C(F)(F)F)=NN3c3ccccc3Cl)cn2)CC1 (stereo not shown)", 6.20),
    ("CS(=O)(=O)c1ccc(-c2ccnc(C3CC(C(F)(F)C(F)(F)F)=NN3c3ccc(F)cc3F)c2)cc1 (stereo not shown)", 6.27),
    ("CS(=O)(=O)c1cccc(-c2ccnc(C3CC(C(F)(F)C(F)(F)F)=NN3c3ccc(F)cc3F)c2)c1 (stereo not shown)", 7.59),
]
